// z-score lookup, one value per entry
protocol-summary: S. cerevisiae growth modulation with rapamycin, primary screen, strain BY4716, OD600, 96 h (AID 1091); further: test concentration not given here
details: higher = more signal, called active from +8 up or from −8 down
endpoint: z-score

compound: COC(=O)[C@@]1(Cc2ccccc2)[C@H]2c3cc(C(=O)N(C)C)n(CCN4CNCC4=O)c3C[C@H]2CN1C(=O)c1ccccc1
endpoint: z-score
recorded-result: 0.1

compound: C=CCNC(=O)[C@H]1[C@@H]2C(=O)O[C@@H](c3ccccc3)[C@@H](c3ccccc3)N2[C@@H](c2ccc(O)cc2)[C@]12C(=O)N(C(=O)OCCOC)c1ccccc12
endpoint: z-score
recorded-result: 2.39

compound: Cn1cccc1C(O)C1C=CC2C(=O)NC(=O)C2N1Nc1ccc(Cl)cc1Cl (configuration not stated)
endpoint: z-score
recorded-result: -0.356

compound: CN1C(=O)C2C=CC(C(O)c3cccc(O)c3)N(Nc3ccccc3)C2C1=O (configuration not stated)
endpoint: z-score
recorded-result: 1.1

compound: CCOC(=O)C1=C[C@@H](c2ccccc2)N(S(=O)(=O)c2ccc(C)cc2)[C@H]1c1ccccc1Cl
endpoint: z-score
recorded-result: 2.48

compound: C=CCN1C(=O)[C@@]2(CCS(=O)(=O)c3ccccc3)N=C(c3ccc(OCCCO)cc3)O[C@H]2c2ccccc21
endpoint: z-score
recorded-result: 3.13

compound: CCOC(=O)C[C@H]1[C@H](OC(=O)c2cc3ccccc3oc2=O)[C@@H](NC(=O)Cc2ccc(OC)cc2)c2cc(OCCCO)ccc2N1C(=O)c1ccc2ccccc2n1
endpoint: z-score
recorded-result: -0.0607

compound: O=C1O[C@H](c2ccccc2)[C@H](c2ccccc2)N2[C@H]1[C@@H](C(=O)Nc1nc3ccccc3s1)[C@]1(C(=O)Nc3ccccc31)[C@H]2c1ccc(OCCO)cc1
endpoint: z-score
recorded-result: 3.31

compound: C=C(C)c1cc2c(c(CCCCCC)n1)[Si](C(C)C)(C(C)C)OC2
endpoint: z-score
recorded-result: -0.9

compound: COCCOC(=O)N1C(=O)[C@@]2(c3ccccc31)[C@H](C(=O)N1CCN(c3ncccn3)CC1)[C@H]1C(=O)O[C@H](c3ccccc3)[C@H](c3ccccc3)N1[C@@H]2c1ccc(O)cc1
endpoint: z-score
recorded-result: 1.72

compound: O=C1C2C=CC(C(O)c3ccc(Br)cc3)N(Nc3ccccc3F)C2C(=O)N1c1ccccc1 (configuration not stated)
endpoint: z-score
recorded-result: -1.26

compound: O=C1O[C@@H](c2ccccc2)[C@@H](c2ccccc2)N2[C@@H](c3ccc(OCCO)cc3)[C@]3(C(=O)Nc4ccccc43)[C@@H](C(=O)O)[C@H]12
endpoint: z-score
recorded-result: -0.219

compound: COC(=O)c1c2oc(c1C(=O)OC)C(=O)N(C)Cc1cn(nn1)C[C@H](Cc1ccccc1)NC(=O)N[C@H](CO)CC2
endpoint: z-score
recorded-result: 0.556

compound: COC(=O)[C@@]1(Cc2ccccc2N=[N+]=[N-])N=C(c2ccc(OCCCO)cc2)O[C@H]1c1ccccc1N=[N+]=[N-]
endpoint: z-score
recorded-result: 26.2

compound: COc1cccc(/C=C/C=O)c1
endpoint: z-score
recorded-result: -0.144

compound: CCCCCCCCCCC(O)C1C=CC2C(=O)N(C)C(=O)C2N1Nc1ccc([N+](=O)[O-])cc1[N+](=O)[O-] (configuration not stated)
endpoint: z-score
recorded-result: 1.35

compound: [N-]=[N+]=Nc1ccccc1C[C@]1(C(N)=O)N=C(c2ccc(OCCCO)cc2)O[C@H]1c1ccccc1N=[N+]=[N-]
endpoint: z-score
recorded-result: -0.686

compound: COCCOC(=O)N1C(=O)[C@@]2(c3cc(C#CC4=CCCCC4)ccc31)[C@H](C(=O)N1CCCCCCC1)[C@H]1C(=O)O[C@H](c3ccccc3)[C@H](c3ccccc3)N1[C@@H]2c1ccc(O)cc1
endpoint: z-score
recorded-result: 0.983

compound: C=CCC(OC(C)=O)[C@@H]1[C@@H](N(Cc2ccc(-c3cccc(C(F)(F)F)c3)o2)C(=O)c2ccc(-c3ccccc3)cc2)c2cc(OCCCO)ccc2N1C(=O)c1ccc2ccccc2n1 (some centres not stated)
endpoint: z-score
recorded-result: 0.847

compound: CC(CO)N1C(=O)[C@@H]2[C@H]3C(=O)OCC=C[C@H]3OC23C=CCN(C(C)(C)C)C(=O)[C@@H]13 (some centres not stated)
endpoint: z-score
recorded-result: -0.422

compound: COC(=O)[C@@]1(Cc2ccc(OC)cc2)[C@H]2c3cc(C(=O)N(C)C)n(Cc4ccc(Cl)c(C(F)(F)F)c4)c3C[C@H]2CN1C(=O)c1ccccc1
endpoint: z-score
recorded-result: 2.98

compound: CCOC(=O)C1=CC[C@@H](c2ccc(OCc3ccccc3)c(OC)c2)N(S(=O)(=O)c2ccc(C)cc2)[C@H]1c1ccc(SC)cc1
endpoint: z-score
recorded-result: 1.94
